Kindly state log10 of Kd for each of the entries shown.
Target or system: T1, P546_AMBCA (Amblyomma cajennense, UniProt A0A023FBW7 22-118);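 note: biolayer interferometry on an Octet system: chemokines at several doses tested against tick chemokine-binding proteins, association, equilibrium and dissociation curves fitted to derive Kd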
T1 sequence: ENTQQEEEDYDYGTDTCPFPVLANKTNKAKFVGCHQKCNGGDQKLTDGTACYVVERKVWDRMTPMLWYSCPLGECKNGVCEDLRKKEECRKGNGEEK
Assay text: BLI
Annotation: log10 of Kd, nM basis.

Input: Entry CCL8_HUMAN (ligand, UniProt P80075 24-99, looked up) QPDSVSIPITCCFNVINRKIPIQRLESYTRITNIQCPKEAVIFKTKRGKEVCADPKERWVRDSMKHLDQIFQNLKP : reported log10 of Kd = ?
Output: 0.11

Input: Endpoint output: log10 of Kd of CCL3_HUMAN (ligand) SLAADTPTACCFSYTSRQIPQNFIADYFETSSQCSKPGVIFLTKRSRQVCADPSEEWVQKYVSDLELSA . Value?
Output: 1.18

Input: I'd like to know its log10 of Kd. The binder in question is CCL4L1_HUMAN (ligand) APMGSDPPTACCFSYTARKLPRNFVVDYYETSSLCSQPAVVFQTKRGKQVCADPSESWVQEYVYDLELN
Output: 0.95

Input: What value of log10 of Kd has been recorded for this entry: CCL14_HUMAN (ligand) TESSSRGPYHPSECCFTYTTYKIPRQRIMDYYETNSQCSKPGIVFITKRGHSVCTNPSDKWVQDYIKDMKEN
Output: 1.45

Input: Value lookup for log10 of Kd; key = CCL1_HUMAN (ligand) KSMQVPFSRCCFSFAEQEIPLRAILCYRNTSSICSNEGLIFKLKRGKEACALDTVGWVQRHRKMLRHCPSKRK
Output: 2.20

Input: For the binder shown here, CCL17_HUMAN (ligand) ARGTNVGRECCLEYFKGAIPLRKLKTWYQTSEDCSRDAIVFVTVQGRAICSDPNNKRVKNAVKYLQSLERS , give the reported log10 of Kd.
Output: 1.85
